Reference for the values: the MegaScale stability set (Tsuboyama et al. 2023)

B1: EEHEE_rd4_0647 (parent)
chain: MQVTWGNVTVTFSNPEEAKKYAEKVARKLGGQVELHNGQFRIK

Variants of: B1
method: folding stability dG (cDNA display proteolysis); higher = more stable
condition_description: PBS, room temperature
metric_name: folding stability dG (kcal/mol)
Give the quantity in kcal/mol, number only.

Below are worked cases with known answers.
K43M :: 2.86
H36F :: 2.79
G38C :: 2.88
G6L :: 2.49
M1P :: 2.09
Y21V :: 1.47

query: Tell me the measured folding stability dG of R27T , please.
result: 2.31

query: Do the same for E23V please
result: 2.42

query: Do the same for F12L please
result: 1.96

query: Do the same for R27N please
result: 2.37
